Target: ALK L1196M/G1202R (Homo sapiens, UniProt Q9UM73, G1202R/L1196M)
Sequence (Q9UM73 1116-1392 L1196M/G1202R limits assumed): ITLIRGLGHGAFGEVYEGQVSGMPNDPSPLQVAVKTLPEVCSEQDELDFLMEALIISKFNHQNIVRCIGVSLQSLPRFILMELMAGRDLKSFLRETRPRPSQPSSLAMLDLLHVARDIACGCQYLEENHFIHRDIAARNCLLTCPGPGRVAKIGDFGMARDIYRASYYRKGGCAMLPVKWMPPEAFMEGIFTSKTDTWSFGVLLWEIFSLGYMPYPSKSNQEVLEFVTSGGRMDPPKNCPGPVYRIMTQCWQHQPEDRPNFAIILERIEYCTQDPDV
Experiment: Biochemical kinase assay, ALK L1196M/G1202R kinase domain
Conditions: apparent inhibitory constant, Morrison equation; ATP 2 mM in substrate solution; read-out: ALK-L1196M-G1202R Ki^app
In this section we review reported Ki values for a set of compounds.

Here's what some known entries look like.
Smiles string	Measurement name	Test result
CCn1ncc2c1-c1cnc(N)c(c1)O[C@H](C)c1cc(F)ccc1-c1nsnc1C2	Ki	< 0.05 µM
C[C@H]1Oc2cc(cnc2N)-c2c(cnn2C2CCC2)Cn2ncnc2-c2ccc(F)cc21	Ki	< 0.05 µM
C[C@H]1Oc2cc(cnc2N)-c2c(c(Cl)nn2CC2CC2)Cc2nn(C)nc2-c2ccc(F)cc21	Ki	< 0.05 µM
C[C@H]1Oc2cc(cnc2N)-c2c(C#N)ncn2Cc2ncccc2-c2ccc(F)cc21	Ki	< 0.05 µM
Cc1nn(CC2CC2)c2c1Cc1nn(C)nc1-c1c(F)cc(F)cc1[C@@H](C)Oc1cc-2cnc1N	Ki	< 0.05 µM

Please report the measured Ki for CCc1noc2c1-c1cnc(N)c(c1)O[C@H](C)c1cc(F)ccc1-c1nnnn1C2
0.05 to 0.5 µM

Please report the measured Ki for CCn1nnc2c1-c1cnc(N)c(c1)O[C@H](C)c1cc(F)ccc1-c1cc(Cl)nn1C2
0.05 to 0.5 µM

Please report the measured Ki for Cc1nc2n(n1)Cc1cnn(CC3CC3)c1-c1cnc(N)c(c1)O[C@H](C)c1cc(F)ccc1-2
< 0.05 µM

---

Molecular target: ALK L1196M/G1202R (Homo sapiens, UniProt Q9UM73, G1202R/L1196M)
Construct: purchased SignalChem A19-12NG
Experiment: Biochemical kinase assay, ALK L1196M/G1202R kinase domain
Conditions: apparent inhibitory constant, Morrison equation; ATP 2 mM in substrate solution; read-out: ALK-L1196M-G1202R Ki^app
Experimental: First, 250 nL of compound dissolved in DMSO (100-fold of the desired concentration) was dispensed into a 384-well plate. […] The plate was sealed and read by SpectraMax Paradigm at λ=485 nm every 2 minutes for 120 minutes at 30° C. Initial rates of reaction (v) were calculated from the change in fluorescence intensity over time during the initial, linear portion of the reaction. […]
pKi: −log10 of the molar value.
Measurement name: pKi

Compound	System	pKi
CCn1nc(Cl)c2c1-c1cnc(N)c(c1)O[C@H](C)c1cc(F)ccc1-c1oc(C)nc1C2 [Example 84]	ALK L1196M/G1202R (Homo sapiens, UniProt Q9UM73, G1202R/L1196M)	> 7.30
C[C@H]1Oc2cc(cnc2N)-c2c(cnn2C(F)F)Cn2nccc2-c2ccc(F)cc21 [Example 12]	ALK L1196M/G1202R (Homo sapiens, UniProt Q9UM73, G1202R/L1196M)	6.30 to 7.30
C[C@H]1Oc2cc(cnc2N)-c2c(c(Cl)nn2CC(F)F)Cc2nn(C)nc2-c2ccc(F)cc21 [Example 60]	ALK L1196M/G1202R (Homo sapiens, UniProt Q9UM73, G1202R/L1196M)	6.30 to 7.30
CCc1noc2c1-c1cnc(N)c(c1)O[C@H](C)c1cc(F)ccc1-c1nn(C)nc1C2 [Example 22]	ALK L1196M/G1202R (Homo sapiens, UniProt Q9UM73, G1202R/L1196M)	> 7.30
C[C@H]1Oc2cc(cnc2N)-c2c(cnn2CC2CC2)Cc2nn(C)cc2-c2ccc(F)cc21 [Example 61]	ALK L1196M/G1202R (Homo sapiens, UniProt Q9UM73, G1202R/L1196M)	> 7.30

Please report the measured pKi for CCn1ncc2c1-c1cnc(N)c(c1)O[C@H](C)c1cc(F)ccc1-c1nn(C)nc1C2 [Example 5]
> 7.30

Please report the measured pKi for C[C@H]1Oc2cc(cnc2N)-c2c(cnn2C2CC2)Cc2nn(C)nc2-c2ccc(F)cc21 [Example 14]
> 7.30

Please report the measured pKi for CCn1nc(C)c2c1-c1cnc(N)c(c1)O[C@H](C)c1cc(F)ccc1-c1ncnn1C2 [Example 56]
> 7.30

Please report the measured pKi for CCn1ncc2c1-c1cnc(N)c(c1)O[C@H](C)c1cc(F)ccc1-n1ncnc1C2 [Example 38]
> 7.30

Please report the measured pKi for CCc1noc2c1-c1cnc(N)c(c1)O[C@H](C)c1cc(F)ccc1-c1ncnn1C2 [Example 50]
> 7.30

Please report the measured pKi for CCn1ncc2c1-c1cnc(N)c(c1)O[C@H](C)c1cc(F)ccc1-c1cc(F)nn1C2 [Example 15]
> 7.30

Please report the measured pKi for C[C@H]1Oc2cc(cnc2N)-c2c(c(Cl)nn2CC2CC2)Cc2nn(C)cc2-c2ccc(F)cc21 [Example 90]
> 7.30

Please report the measured pKi for C[C@H]1Oc2cc(cnc2N)-c2c(C3CCC3)noc2Cc2nn(C)nc2-c2ccc(F)cc21 [Example 26]
> 7.30

Please report the measured pKi for CCn1ncc2c1-c1cnc(N)c(c1)O[C@H](C)c1cc(F)ccc1-c1nccnc1C2 [Example 36]
> 7.30

Please report the measured pKi for CCn1nc(Cl)c2c1-c1cnc(N)c(c1)O[C@H](C)c1cc(F)ccc1-c1nn(C)nc1C2 [Example 28]
> 7.30

Please report the measured pKi for CCc1nsc2c1-c1cnc(N)c(c1)O[C@H](C)c1cc(F)ccc1-c1ncnn1C2 [Example 44]
6.30 to 7.30
